Data provenance is ChEMBL document CHEMBL5653596.

# targetEntity: Epidermal growth factor receptor (Homo sapiens)
# Sequence (P00533 whole entry, the tested form may be a part): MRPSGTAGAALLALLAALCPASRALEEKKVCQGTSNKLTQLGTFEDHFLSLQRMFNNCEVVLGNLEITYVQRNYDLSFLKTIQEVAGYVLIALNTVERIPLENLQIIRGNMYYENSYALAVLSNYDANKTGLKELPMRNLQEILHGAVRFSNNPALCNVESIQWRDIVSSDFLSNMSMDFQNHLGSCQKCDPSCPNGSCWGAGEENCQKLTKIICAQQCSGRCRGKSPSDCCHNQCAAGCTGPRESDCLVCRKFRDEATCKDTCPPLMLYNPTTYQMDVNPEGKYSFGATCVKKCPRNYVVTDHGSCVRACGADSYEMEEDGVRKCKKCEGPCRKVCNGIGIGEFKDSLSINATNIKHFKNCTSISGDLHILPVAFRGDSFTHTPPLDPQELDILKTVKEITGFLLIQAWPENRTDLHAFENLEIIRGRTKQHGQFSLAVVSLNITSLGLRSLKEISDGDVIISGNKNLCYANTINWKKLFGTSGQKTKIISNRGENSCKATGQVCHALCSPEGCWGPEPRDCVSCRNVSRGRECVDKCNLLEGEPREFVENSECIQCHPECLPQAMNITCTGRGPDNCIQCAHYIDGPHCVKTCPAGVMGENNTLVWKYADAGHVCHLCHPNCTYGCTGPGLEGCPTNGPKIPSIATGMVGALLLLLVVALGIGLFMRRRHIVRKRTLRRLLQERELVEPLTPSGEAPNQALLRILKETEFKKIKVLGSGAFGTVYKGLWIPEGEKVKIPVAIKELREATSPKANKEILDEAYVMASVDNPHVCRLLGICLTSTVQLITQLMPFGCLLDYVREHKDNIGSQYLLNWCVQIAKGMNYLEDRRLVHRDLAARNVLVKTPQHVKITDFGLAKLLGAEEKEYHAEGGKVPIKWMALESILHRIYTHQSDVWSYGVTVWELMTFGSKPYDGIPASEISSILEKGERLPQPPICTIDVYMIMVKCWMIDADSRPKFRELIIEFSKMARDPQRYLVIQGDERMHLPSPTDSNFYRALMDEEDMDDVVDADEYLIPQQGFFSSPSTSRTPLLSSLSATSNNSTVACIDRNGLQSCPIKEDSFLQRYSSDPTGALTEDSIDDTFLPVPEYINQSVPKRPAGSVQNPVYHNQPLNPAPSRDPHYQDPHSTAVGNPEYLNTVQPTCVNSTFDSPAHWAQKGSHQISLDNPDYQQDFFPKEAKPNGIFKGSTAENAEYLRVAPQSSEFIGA
# procedureText: Inhibition of glutathione S-transferase fused EGFR (unknown origin) catalytic activity infected in Sf9 cells using poly-Glu-Tyr (4:1) as substrate
pIC50: −log10 of the molar value.
quantity: pIC50

Query: Please give the measured pIC50 for this compound: Cc1[nH]c(/C=C2/C(=O)Nc3ccc(S(=O)(=O)N(C)c4cccc(Cl)c4)cc32)c(C)c1C(=O)N1CCN(C)CC1
Result: < 4.00

====

# targetEntity: Hepatocyte growth factor receptor (Homo sapiens, UniProt P08581)
# Sequence (P08581 whole entry): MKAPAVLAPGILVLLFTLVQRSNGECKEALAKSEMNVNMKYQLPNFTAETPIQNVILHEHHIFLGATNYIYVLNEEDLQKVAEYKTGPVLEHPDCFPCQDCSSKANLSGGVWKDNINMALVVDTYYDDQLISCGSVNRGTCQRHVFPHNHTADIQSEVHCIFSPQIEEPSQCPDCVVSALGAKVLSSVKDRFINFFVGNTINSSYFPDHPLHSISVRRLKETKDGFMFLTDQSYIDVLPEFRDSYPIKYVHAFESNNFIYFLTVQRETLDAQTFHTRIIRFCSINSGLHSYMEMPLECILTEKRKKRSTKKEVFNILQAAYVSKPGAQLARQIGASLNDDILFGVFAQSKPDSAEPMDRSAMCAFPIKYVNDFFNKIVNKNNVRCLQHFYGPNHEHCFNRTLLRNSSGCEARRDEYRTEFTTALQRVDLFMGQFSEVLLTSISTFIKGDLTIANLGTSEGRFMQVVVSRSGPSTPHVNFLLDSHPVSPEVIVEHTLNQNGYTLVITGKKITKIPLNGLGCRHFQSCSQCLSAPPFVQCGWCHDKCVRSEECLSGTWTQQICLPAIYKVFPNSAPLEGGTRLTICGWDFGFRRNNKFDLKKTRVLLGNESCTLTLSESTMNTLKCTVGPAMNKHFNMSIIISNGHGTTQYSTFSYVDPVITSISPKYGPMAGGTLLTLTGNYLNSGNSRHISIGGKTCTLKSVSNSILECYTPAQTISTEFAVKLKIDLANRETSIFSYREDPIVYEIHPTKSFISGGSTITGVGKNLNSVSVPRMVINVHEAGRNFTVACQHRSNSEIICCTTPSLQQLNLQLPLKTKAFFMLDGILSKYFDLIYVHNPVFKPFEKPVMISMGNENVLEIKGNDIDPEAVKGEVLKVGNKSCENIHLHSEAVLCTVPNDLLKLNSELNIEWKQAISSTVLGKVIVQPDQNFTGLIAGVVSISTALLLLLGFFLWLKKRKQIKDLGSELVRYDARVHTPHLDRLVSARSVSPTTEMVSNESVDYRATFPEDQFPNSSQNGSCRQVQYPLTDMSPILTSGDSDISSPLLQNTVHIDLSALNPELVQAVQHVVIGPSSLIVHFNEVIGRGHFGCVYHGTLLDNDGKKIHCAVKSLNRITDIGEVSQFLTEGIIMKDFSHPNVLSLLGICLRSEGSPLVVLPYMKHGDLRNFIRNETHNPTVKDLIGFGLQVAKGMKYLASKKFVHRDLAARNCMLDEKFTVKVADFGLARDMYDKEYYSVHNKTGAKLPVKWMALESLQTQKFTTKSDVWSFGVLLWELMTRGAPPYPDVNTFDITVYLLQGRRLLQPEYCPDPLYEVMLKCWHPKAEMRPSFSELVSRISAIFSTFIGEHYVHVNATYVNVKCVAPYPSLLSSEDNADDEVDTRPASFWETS
# procedureText: Inhibition of HGF-dependent Met (unknown origin) phosphorylation
quantity: pIC50
Keep in mind that pIC50 stands for -log10 of concentration in molar terms.

Query: Please give the measured pIC50 for this compound: Cc1[nH]c(/C=C2/C(=O)Nc3ccc(S(=O)(=O)N(C)c4cccc(Cl)c4)cc32)c(C)c1C(=O)N1CCN(C)CC1
Result: 6.00

====

# targetEntity: Fibroblast growth factor receptor 1 (Homo sapiens)
# Sequence (P11362 whole entry, the tested form may be a part): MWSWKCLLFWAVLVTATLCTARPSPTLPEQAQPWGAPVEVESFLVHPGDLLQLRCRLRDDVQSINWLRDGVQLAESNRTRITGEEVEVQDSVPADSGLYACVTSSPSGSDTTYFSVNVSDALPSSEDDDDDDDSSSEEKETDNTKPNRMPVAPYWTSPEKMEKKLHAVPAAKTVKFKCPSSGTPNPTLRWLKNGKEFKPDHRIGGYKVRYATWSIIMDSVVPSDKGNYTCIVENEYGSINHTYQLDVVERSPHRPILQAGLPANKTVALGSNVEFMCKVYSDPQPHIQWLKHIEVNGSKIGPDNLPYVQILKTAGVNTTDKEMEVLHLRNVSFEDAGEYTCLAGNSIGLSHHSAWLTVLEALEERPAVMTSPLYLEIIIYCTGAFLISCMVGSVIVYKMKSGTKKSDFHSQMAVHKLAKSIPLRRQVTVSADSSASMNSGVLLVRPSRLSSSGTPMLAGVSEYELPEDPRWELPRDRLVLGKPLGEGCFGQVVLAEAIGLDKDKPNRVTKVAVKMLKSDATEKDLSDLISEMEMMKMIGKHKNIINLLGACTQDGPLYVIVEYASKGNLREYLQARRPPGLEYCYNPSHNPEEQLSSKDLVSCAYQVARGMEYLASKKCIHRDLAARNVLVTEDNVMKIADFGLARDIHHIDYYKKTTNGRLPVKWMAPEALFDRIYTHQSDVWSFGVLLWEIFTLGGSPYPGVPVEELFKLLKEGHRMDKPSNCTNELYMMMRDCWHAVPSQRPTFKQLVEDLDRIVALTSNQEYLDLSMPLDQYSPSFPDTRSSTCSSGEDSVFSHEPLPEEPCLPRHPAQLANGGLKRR
# procedureText: Inhibition of glutathione S-transferase fused FGFR1 (unknown origin) catalytic activity infected in Sf9 cells using poly-Glu-Tyr (4:1) as substrate
quantity: pIC50
Keep in mind that pIC50 stands for -log10 of concentration in molar terms.

Query: Please give the measured pIC50 for this molecule: Cc1[nH]c(/C=C2/C(=O)Nc3ccc(S(=O)(=O)N(C)c4cccc(Cl)c4)cc32)c(C)c1C(=O)N1CCN(C)CC1
Result: 5.01

====

# targetEntity: Proto-oncogene tyrosine-protein kinase Src (Homo sapiens)
# Sequence (P12931 2-536 limits assumed): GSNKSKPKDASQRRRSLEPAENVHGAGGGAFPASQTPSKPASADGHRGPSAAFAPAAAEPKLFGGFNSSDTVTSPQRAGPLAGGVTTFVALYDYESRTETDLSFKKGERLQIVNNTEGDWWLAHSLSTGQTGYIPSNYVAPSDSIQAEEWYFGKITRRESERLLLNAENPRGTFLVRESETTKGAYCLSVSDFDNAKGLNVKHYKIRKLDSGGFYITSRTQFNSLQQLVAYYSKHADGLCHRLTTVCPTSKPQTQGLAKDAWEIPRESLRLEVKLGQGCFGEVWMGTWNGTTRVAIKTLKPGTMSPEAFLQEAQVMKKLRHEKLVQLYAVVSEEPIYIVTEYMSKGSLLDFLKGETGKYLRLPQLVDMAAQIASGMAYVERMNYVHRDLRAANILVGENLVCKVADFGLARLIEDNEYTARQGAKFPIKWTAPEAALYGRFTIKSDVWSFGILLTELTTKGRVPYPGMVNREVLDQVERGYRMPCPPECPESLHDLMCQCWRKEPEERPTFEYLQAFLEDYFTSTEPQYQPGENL
# procedureText: Inhibition of glutathione S-transferase fused c-Src (unknown origin) catalytic activity infected in Sf9 cells using poly-Glu-Tyr (4:1) as substrate
pIC50: −log10 of the molar value.
quantity: pIC50

Query: Please give the measured pIC50 for this compound: Cc1[nH]c(/C=C2/C(=O)Nc3ccc(S(=O)(=O)N(C)c4cccc(Cl)c4)cc32)c(C)c1C(=O)N1CCN(C)CC1
Result: < 5.00

====

# Test system: BaF3
# procedureText: Inhibition of cell growth in mouse BaF3 cells transfected with TPR-MET genes by 3-(4,5-dimethylthiazol-2-yl)-2,5-diphenyltetrazolium bromide assay
# Format: functional, cell-based
quantity: IC50

Query: Please give the measured IC50 for this molecule: Cc1[nH]c(/C=C2/C(=O)Nc3ccc(S(=O)(=O)N(C)c4cccc(Cl)c4)cc32)c(C)c1C(=O)N1CCN(C)CC1
Result: < 3000 nM

====

# targetEntity: Cyclin-dependent kinase 2 (Homo sapiens, UniProt P24941)
# procedureText: Inhibition of glutathione S-transferase fused CDK2 (unknown origin) catalytic activity infected in Sf9 cells using poly-Glu-Tyr (4:1) as substrate
quantity: IC50

Query: Please give the measured IC50 for this molecule: Cc1[nH]c(/C=C2/C(=O)Nc3ccc(S(=O)(=O)N(C)c4cccc(Cl)c4)cc32)c(C)c1C(=O)N1CCN(C)CC1
Result: > 10 µM

====

# targetEntity: Angiopoietin-1 receptor (Homo sapiens)
# Sequence (Q02763 whole entry, the tested form may be a part): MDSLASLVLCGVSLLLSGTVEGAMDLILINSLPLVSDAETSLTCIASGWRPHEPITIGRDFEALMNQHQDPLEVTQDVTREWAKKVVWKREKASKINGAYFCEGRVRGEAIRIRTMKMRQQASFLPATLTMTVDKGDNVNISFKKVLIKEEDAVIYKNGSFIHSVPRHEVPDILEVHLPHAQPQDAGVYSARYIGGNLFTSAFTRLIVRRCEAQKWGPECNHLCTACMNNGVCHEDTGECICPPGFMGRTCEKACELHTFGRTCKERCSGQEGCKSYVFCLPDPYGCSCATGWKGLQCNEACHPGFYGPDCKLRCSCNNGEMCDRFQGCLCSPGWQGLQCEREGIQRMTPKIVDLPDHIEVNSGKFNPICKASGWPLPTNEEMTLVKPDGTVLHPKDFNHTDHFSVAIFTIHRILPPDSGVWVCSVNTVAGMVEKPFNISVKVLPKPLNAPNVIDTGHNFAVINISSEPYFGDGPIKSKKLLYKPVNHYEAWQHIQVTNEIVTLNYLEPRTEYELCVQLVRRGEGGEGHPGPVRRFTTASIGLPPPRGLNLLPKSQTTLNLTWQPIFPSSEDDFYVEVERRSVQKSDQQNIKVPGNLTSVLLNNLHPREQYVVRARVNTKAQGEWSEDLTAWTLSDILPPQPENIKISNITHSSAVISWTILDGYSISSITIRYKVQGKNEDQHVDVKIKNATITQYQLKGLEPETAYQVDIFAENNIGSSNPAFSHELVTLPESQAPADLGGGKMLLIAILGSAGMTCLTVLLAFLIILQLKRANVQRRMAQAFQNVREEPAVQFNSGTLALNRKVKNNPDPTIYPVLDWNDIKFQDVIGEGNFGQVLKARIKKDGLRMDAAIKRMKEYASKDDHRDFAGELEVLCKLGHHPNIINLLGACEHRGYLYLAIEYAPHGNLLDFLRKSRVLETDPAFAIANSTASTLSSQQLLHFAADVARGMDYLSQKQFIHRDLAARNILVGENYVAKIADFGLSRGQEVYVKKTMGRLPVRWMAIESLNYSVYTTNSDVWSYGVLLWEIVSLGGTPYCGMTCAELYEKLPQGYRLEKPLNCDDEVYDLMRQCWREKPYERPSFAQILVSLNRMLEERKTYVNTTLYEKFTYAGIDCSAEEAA
# procedureText: Inhibition of glutathione S-transferase fused Tie2 (unknown origin) catalytic activity infected in Sf9 cells using poly-Glu-Tyr (4:1) as substrate
pIC50: −log10 of the molar value.
quantity: pIC50

Query: Lab note: need pIC50 with Angiopoietin-1 receptor (Homo sapiens) for entry Cc1[nH]c(/C=C2/C(=O)Nc3ccc(S(=O)(=O)N(C)c4cccc(Cl)c4)cc32)c(C)c1C(=O)N1CCN(C)CC1 , please look it up.
Result: < 4.00
